Readings of Euclidean distance for the listed molecules
Tested on: FB
assayText: Euclidean distance of Cell Painting phenotypic profile (signed KS, 77 features) to DMSO centroid (dimensionless distance); 5 or 10 uM (library dependent); higher = stronger phenotypic change vs DMSO (phenoactivity)
testSettings: 48 h
Structures can show the parent of a compound that is named as a salt.
Lab note: jot down the number only; don't add units.

Past entries and their recorded results:
{"columns": ["molecule", "Euclidean distance"],
 "data": [
  ["CCOC(=O)C1=C(COCCN)NC(C)=C(C(=O)OC)C1c1ccccc1Cl (configuration not stated) [Amlodipine]", 1.06],
  ["CC1(C)S[C@@H]2[C@H](NC(=O)[C@H](NC(=O)N3CCNC3=O)c3ccccc3)C(=O)N2[C@H]1C(=O)O [Azlocillin sodium salt]", 1.08],
  ["CCCCCOc1ccc(-c2ccc(-c3ccc(C(=O)N[C@H]4C[C@@H](O)[C@@H](O)NC(=O)[C@@H]5[C@@H](O)[C@@H](C)CN5C(=O)[C@H]([C@@H](C)O)NC(=O)[C@H]([C@H](O)[C@@H](O)c5ccc(O)cc5)NC(=O)[C@@H]5C[C@@H](O)CN5C(=O)[C@H]([C@@H](C)O)NC4=O)cc3)cc2)cc1", 0.749],
  ["Cc1c(C(N)=O)cc([N+](=O)[O-])cc1[N+](=O)[O-] [Dinitolmide]", 0.814],
  ["CCCCCCCCCCCC(=O)O", 1.34],
  ["CNCCCC12CCC(c3ccccc31)c1ccccc12 [Maprotiline HCl]", 2.09]
]}

Exercise: Give Euclidean distance for the following molecule: COc1cc(C(=O)O)ccc1NC(=O)[C@@H]1N[C@@H](CC(C)(C)C)[C@](C#N)(c2ccc(Cl)cc2F)[C@H]1c1cccc(Cl)c1F [Idasanutlin (RG-7388)]
Solution: 1.43

Exercise: Supply measured Euclidean distance of Nc1ccc(S(=O)(=O)c2ccc(N)cc2)cc1 in your reply.
Solution: 1.64

Exercise: Give recorded Euclidean distance. COc1ncnc(NS(=O)(=O)c2ccc(N)cc2)c1OC
Solution: 0.491

Exercise: Give Euclidean distance for the following molecule: Cc1ncc(CO)c(CO)c1O [Pyridoxine HCl]
Solution: 0.7

Exercise: Using known records, supply Euclidean distance for COc1cc2c(Oc3ccc4[nH]c(C)cc4c3F)ncnc2cc1OCCCN1CCCC1 [Cediranib Maleate]
Solution: 4.67

Exercise: Identify measured Euclidean distance corresponding to Nc1nc2ccc(OC(F)(F)F)cc2s1
Solution: 1.3

Exercise: Tell me measured Euclidean distance for CN(C)[C@@H]1C(O)=C(C(N)=O)C(=O)[C@@]2(O)C(O)=C3C(=O)c4c(O)cccc4[C@@](C)(O)[C@H]3[C@H](O)[C@@H]12 [Oxytetracycline Dihydrate] please.
Solution: 1.19

Exercise: Return value of Euclidean distance for input CN(C)CCCN1c2ccccc2Sc2ccc(C(F)(F)F)cc21 [Triflupromazine hydrochloride] , no commentary.
Solution: 2.36

Exercise: Consider the molecule COc1cc2c(Nc3ccc(NC(=O)c4ccccc4)cc3)ncnc2cc1OCCCN1CCOCC1 . State its measured Euclidean distance.
Solution: 2.7

Exercise: Assign Euclidean distance to the following record: NCCCCC(NC(=O)C1CCCN1C(=O)C1CSSCC(N)C(=O)NC(Cc2ccc(O)cc2)C(=O)NC(Cc2ccccc2)C(=O)NC(CCC(N)=O)C(=O)NC(CC(N)=O)C(=O)N1)C(=O)NCC(N)=O (configuration not stated) [Lypressin Acetate]
Solution: 1.11

Exercise: Identify measured Euclidean distance corresponding to Cc1c(Cl)cccc1Nc1ccccc1C(=O)O
Solution: 0.742

Exercise: Tell us which Euclidean distance value is on record for O=C(NCc1ccncc1)C12CC3CC(C1)CC(c1ccc(Cl)cc1)(C3)C2
Solution: 0.743

FYI, the data here is from the supplement of paper PMC10127200.
